Tested on: Yap1 mRNA
Test: Antisense inhibition of human Yap1 in A-431 cells by cEt gapmers, single dose (Example 3, RTS36584)
Assay type: cell-based
Details: Table 26; Yap1 mRNA by 3-10-3 cEt gapmers targeting SEQ ID NO.: 1, and 2; percent of untreated control
Strand notation (5' to 3'): a small letter for the sugar, then the base; units joined by * are phosphorothioate-linked, units joined directly phosphodiester-linked; [ ] holds rarer units or linkages, { } end groups; capitals alone tell only the bases. k = constrained ethyl (cEt); [5mC] = 5-methylcytosine; d = 2'-deoxy (DNA)
Readout Name: YAP1 (% UTC)
Answer in % UTC, number only, no unit symbol.

The reported value for 1074252 (antisense kG*kG*kA*d[5mC]*dA*dG*d[5mC]*dA*dT*dG*dG*d[5mC]*d[5mC]*kT*kT*k[5mC]) [compound 1074252] in terms of YAP1 (% UTC) is 50

Item: 1074796 (k[5mC]*kT*k[5mC]*d[5mC]*dA*dA*dA*dT*d[5mC]*dA*dA*dT*dG*kT*kG*k[5mC]; antisense) [compound 1074796] | YAP1 (% UTC): 22

Record summary for 1074348 (antisense kG*kT*kA*d[5mC]*dT*d[5mC]*dT*d[5mC]*dA*dT*d[5mC]*dT*d[5mC]*kG*kA*kG) [compound 1074348] : reported YAP1 (% UTC) = 100

Noted for 1076236 (kG*kG*kA*dG*dA*dA*d[5mC]*d[5mC]*dT*dT*dA*dT*dT*kT*kA*kT; antisense) [compound 1076236] : its YAP1 (% UTC) reads 51

Lookup result for 1074124 (kG*kG*k[5mC]*dT*dG*d[5mC]*dG*dA*dG*dG*d[5mC]*dA*d[5mC]*kT*k[5mC]*kG; antisense) [compound 1074124] ; measured YAP1 (% UTC): 94

For 1076364 (antisense k[5mC]*k[5mC]*kA*dT*dA*dA*dA*dA*dG*dT*d[5mC]*d[5mC]*dA*k[5mC]*kT*kA) [compound 1076364] the substance record lists YAP1 (% UTC) as 30

###

# body weight annotations
Test: Tolerability in Balb/c mice, body and organ weights (Example 10)
Format: in vivo
Details: 50 mg/kg subcutaneously twice a week for four weeks, end of study
Strand notation (5' to 3'): a small letter for the sugar, then the base; units joined by * are phosphorothioate-linked, units joined directly phosphodiester-linked; [ ] holds rarer units or linkages, { } end groups; capitals alone tell only the bases. k = constrained ethyl (cEt); [5mC] = 5-methylcytosine; d = 2'-deoxy (DNA)
Answer format reminder: number followed by unit.

Recorded results for 5 substances are shown here.
[[record]]
substance = "715484 (kT*kA*k[5mC]*dT*d[5mC]*dT*dT*dT*dG*dG*dA*dA*dA*k[5mC]*k[5mC]*kA; antisense) [compound 715484]"
readout_name = "body weight"
reported_value = "22 g"

[[record]]
substance = "715491 (kA*kA*k[5mC]*d[5mC]*dA*dA*d[5mC]*dT*dA*dT*dT*dA*d[5mC]*kT*kT*k[5mC]) [compound 715491]"
readout_name = "body weight"
reported_value = "22 g"

[[record]]
substance = "715480 (kG*kG*kA*dA*dA*d[5mC]*d[5mC]*dA*dT*dT*dA*dT*dT*kA*k[5mC]*kT; antisense) [compound 715480]"
readout_name = "body weight"
reported_value = "22 g"

[[record]]
substance = "715487 (kA*kT*kT*dA*d[5mC]*dT*dT*d[5mC]*dA*dT*dA*dG*d[5mC]*kT*kT*kA) [compound 715487]"
readout_name = "body weight"
reported_value = "23 g"

[[record]]
substance = "715593 (kA*kT*kT*dT*d[5mC]*dT*dT*dT*dG*dG*d[5mC]*dA*dG*kA*kG*kA; antisense) [compound 715593]"
readout_name = "body weight"
reported_value = "19 g"


The recorded body weight for 715558 (k[5mC]*kA*kG*dG*dA*dA*dG*dT*dT*dA*dT*dT*d[5mC]*kA*kG*k[5mC]; antisense) [compound 715558] is 22 g

###

Tested on: Yap1 mRNA
Test: Dose-dependent inhibition of human Yap1 in A-431 cells (Example 6, 5,000 cells per well, RTS4814)
Format: cell-based
Details: Table 55; 444 nM, free uptake, A-431 cells 5,000 cells per well, 48 hours, RTS4814
Strand notation (5' to 3'): a small letter for the sugar, then the base; units joined by * are phosphorothioate-linked, units joined directly phosphodiester-linked; [ ] holds rarer units or linkages, { } end groups; capitals alone tell only the bases. k = constrained ethyl (cEt); [5mC] = 5-methylcytosine; d = 2'-deoxy (DNA)
Would you please tag the item YES when its Yap1 mRNA, % UTC is 90 % UTC or above, and NO when it is below?

# count of solved cases: 4
[[record]]
substance = "716537 (antisense kA*kT*kG*dT*dG*d[5mC]*dT*d[5mC]*d[5mC]*dA*dT*d[5mC]*dA*kA*k[5mC]*k[5mC]) [compound 716537]"
assayed_target = "Yap1 mRNA"
category_label = "YES"

[[record]]
substance = "716480 (antisense kG*k[5mC]*kA*dA*dG*dT*d[5mC]*dT*dT*dG*dT*dA*dA*kG*kT*kA) [compound 716480]"
assayed_target = "Yap1 mRNA"
category_label = "NO"

[[record]]
substance = "716513 (antisense kA*kA*kT*d[5mC]*dT*dT*dA*dA*dT*d[5mC]*dT*dG*dT*kG*kG*k[5mC]) [compound 716513]"
assayed_target = "Yap1 mRNA"
category_label = "NO"

[[record]]
substance = "716543 (antisense kT*kA*kT*dT*dT*dG*dT*dA*dG*d[5mC]*dA*dA*dA*kG*kT*k[5mC]) [compound 716543]"
assayed_target = "Yap1 mRNA"
category_label = "YES"


Here's the next entry for you.
Please tell me: is the substance 716387 (antisense kT*kA*kT*dG*dG*dT*dT*dT*dA*dT*dA*dT*dA*kG*kT*kA) [compound 716387] at or over 90 % UTC in terms of Yap1 mRNA, % UTC?
YES

###

System: Yap1 mRNA
Test: Antisense inhibition of human Yap1 in SNU-449 cells by modified oligonucleotides, single dose (Example 5, RTS36584)
Format: cell-based
Details: Table 51; Yap1 mRNA remaining as percent of untreated control (UT), SNU-449 cells, single dose
Strand notation (5' to 3'): a small letter for the sugar, then the base; units joined by * are phosphorothioate-linked, units joined directly phosphodiester-linked; [ ] holds rarer units or linkages, { } end groups; capitals alone tell only the bases. k = constrained ethyl (cEt); [5mC] = 5-methylcytosine; d = 2'-deoxy (DNA); m = 2'-O-methyl
Readout Name: YAP1 (% UT)
Give the number; % UT is assumed, so skip it.

[[record]]
substance = "1197315 (kA*kA*k[5mC]*dT*mU*dT*dA*dA*dA*dG*dT*dG*dT*kA*kT*kG; antisense) [Compound 1197315]"
assayed_target = "Yap1 mRNA"
readout_name = "YAP1 (% UT)"
reading_unit = "% UT"
reported_value = 116


Okay, next one:
Memo: 1200785 (kA*kT*kT*dG*dT*mC*dT*d[5mC]*dA*dT*dG*d[5mC]*d[5mC]*kT*kT*kA; antisense) [Compound 1200785] , reported YAP1 (% UT): 15

###

Test system: Yap1 mRNA
Test: Antisense inhibition of human Yap1 in SNU-449 cells by modified oligonucleotides, single dose (Example 5, RTS36584)
Format: cell-based
Details: Table 51; Yap1 mRNA remaining as percent of untreated control (UT), SNU-449 cells, single dose
Strand notation (5' to 3'): a small letter for the sugar, then the base; units joined by * are phosphorothioate-linked, units joined directly phosphodiester-linked; [ ] holds rarer units or linkages, { } end groups; capitals alone tell only the bases. k = constrained ethyl (cEt); [5mC] = 5-methylcytosine; d = 2'-deoxy (DNA); m = 2'-O-methyl
Reported values of YAP1 (% UT) for individual entries
Please state the number and follow it with the unit.

Some substances with recorded YAP1 (% UT):
[[record]]
substance = "1197316 (kT*kA*kA*dG*mU*dA*dA*dG*dG*dT*dT*dT*d[5mC]*k[5mC]*k[5mC]*kA; antisense) [Compound 1197316]"
readout_name = "YAP1 (% UT)"
reported_value = "46 % UT"

[[record]]
substance = "1197260 (kT*kT*kA*dT*mA*dT*dG*dG*dT*dT*dT*dT*dG*kT*kG*kT) [Compound 1197260]"
readout_name = "YAP1 (% UT)"
reported_value = "65 % UT"

[[record]]
substance = "1200786 (kA*kA*kT*dT*dG*mU*d[5mC]*dT*d[5mC]*dA*dT*dG*d[5mC]*k[5mC]*kT*kT; antisense) [Compound 1200786]"
readout_name = "YAP1 (% UT)"
reported_value = "21 % UT"

[[record]]
substance = "1200798 (kT*kA*kT*dT*dA*mG*dA*dG*dT*dA*dT*dG*dT*kG*kG*k[5mC]; antisense) [Compound 1200798]"
readout_name = "YAP1 (% UT)"
reported_value = "7 % UT"


Lookup result for 1197255 (antisense kT*kT*kT*dA*mG*dG*dA*dT*dG*d[5mC]*dA*dT*dG*kG*kT*kT) [Compound 1197255] ; measured YAP1 (% UT): 38 % UT

Note to self: YAP1 (% UT) recorded for 1200795 (kT*kA*kG*dA*dG*mU*dA*dT*dG*dT*dG*dG*d[5mC]*kA*kA*kT; antisense) [Compound 1200795] was 30 % UT
